RUN_DESCRIPTION: in vitro
CONDITION_DETAILS: African green monkey
pIC50: −log10 of the molar value.
MEASUREMENT_LABEL: pIC50

The measured pIC50 associated with Nc1nc2c(ncn2COCCO)c(=O)[nH]1 reads < 4.00
